Provide the recorded RP-LC retention time for the entries that follow.
- EXPERIMENTAL PROTOCOL: gradient 5% acetonitrile 3 min, to 50% in 2 min, to 85% in 15 min, held 3 min, 100 µL/min
- PROTOCOL CONDITIONS: column: Zorbax Extend-C18 2.1 x 50 mm; eluents: water / acetonitrile, 0.1% formic acid
Answers are plain numbers, in s.

Sample answers from the record:
| COMPOUND | UNIT OF MEASURE | RP-LC retention time |
| --- | --- | --- |
| CCOC(=O)c1cc(S(=O)(=O)N2CCCC2C(=O)NCc2ccc(C)o2)cn1C (stereo not given) | s | 846 |
| Cc1nc(Nc2ccccn2)sc1C(=O)N1CCN(c2ccccc2F)CC1 | s | 841 |
| Cc1cncn(CC(=O)Nc2ccccc2Cl)c1=O | s | 608 |

Consider the following items and state reported RP-LC retention time for each.
1. O=C(O)c1ccc(-c2nnc3ccc(NC(=O)C4CCC4)cn23)cc1
2. CCOc1cc(C)c(S(=O)(=O)N2CCC(C(N)=O)CC2)cc1C
3. Cc1ccc(C)c(-c2cc3c(=O)n(Cc4noc(-c5ccccn5)n4)ccn3n2)c1
4. CN1C(=O)c2cc(C(=O)NCc3cccc(Cl)c3)nn2CC1(C)C(=O)NC1CCCCC1 (stereo not given)
5. Cc1cc(C)cc(NS(=O)(=O)c2c(C)sc(C)c2-c2cc(C(F)(F)F)on2)c1
6. CC(=O)c1ccc(-n2ccc3c(cnc4c(-c5ccccc5)c(C)nn43)c2=O)cc1

[683, 715, 923, 793, 1240, 969]

Consider the following items and state reported RP-LC retention time for each.
1. O=c1c(=O)n(-c2ccccc2)ccn1Cc1nc(-c2cccc(Br)c2)no1
2. O=C(CCC1CCCN(C(=O)Nc2ccc(Cl)cc2)C1)NCc1cccc(Cl)c1 (stereo not given)
3. CCCN1CCCCc2cc(C(=O)NC(C)(C)C)sc21
4. CC(C)CN1CCN(S(=O)(=O)c2ccc(-c3nnc(C4CCC4)o3)o2)CC1

[885, 960, 1200, 610]

Consider the following items and state reported RP-LC retention time for each.
1. CCC(C(=O)NCc1ccco1)n1nc(C)c2c(C)n(-c3ccccc3)nc2c1=O (stereo not given)
2. O=C(Nc1ccc2c(c1)OCO2)N1CCC(n2c(-c3ccco3)nc3cccnc32)C1 (stereo not given)
3. CN1C(=O)[C@H]2CN(Cc3ccccc3OC(F)(F)F)C[C@H]2C1=O
4. CC(C)N1C(=O)c2cccnc2Sc2cc(NC(=O)c3ccc(F)cc3Cl)ccc21
5. Cn1c(C(N)=O)c(N2CCCC2=O)c2cc(F)ccc21
6. O=C(c1cn(-c2cc(N3CCSCC3)ncn2)cn1)N1CCc2ccccc21

[831, 726, 691, 916, 669, 952]

I'd like to know its RP-LC retention time. The compound in question is `CNC(=O)C1=CCN(C(=O)NC2CCCC2)CC1`
615
